Target: HIV Env, isolate T263-8 (HIV)
Assay: cell-based or functional assay
Provide the recorded IC80 (µg/ml) with constrains for the entries that follow.
Answers are plain numbers, in µg/mL.

Use these answered entries as a reference point.
1. ePGDM5 (antibody, V domains shown) VH: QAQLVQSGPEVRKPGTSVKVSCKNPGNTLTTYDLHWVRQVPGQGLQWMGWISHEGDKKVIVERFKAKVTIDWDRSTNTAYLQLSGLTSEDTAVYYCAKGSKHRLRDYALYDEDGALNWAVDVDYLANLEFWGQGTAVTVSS VL: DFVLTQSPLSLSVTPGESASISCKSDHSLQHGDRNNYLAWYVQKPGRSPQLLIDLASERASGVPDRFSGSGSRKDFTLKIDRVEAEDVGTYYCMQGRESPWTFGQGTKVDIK ... 0.076
2. ePGDM9 (antibody, V domains shown) VH: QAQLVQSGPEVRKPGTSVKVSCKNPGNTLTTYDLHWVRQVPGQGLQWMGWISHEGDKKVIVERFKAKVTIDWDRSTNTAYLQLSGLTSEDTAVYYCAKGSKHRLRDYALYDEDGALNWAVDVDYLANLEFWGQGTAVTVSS VL: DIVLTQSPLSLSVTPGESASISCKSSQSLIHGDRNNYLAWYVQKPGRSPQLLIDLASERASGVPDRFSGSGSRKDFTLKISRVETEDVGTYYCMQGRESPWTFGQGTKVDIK ... 0.06
3. PGDM1400 (antibody, V domains shown) VH: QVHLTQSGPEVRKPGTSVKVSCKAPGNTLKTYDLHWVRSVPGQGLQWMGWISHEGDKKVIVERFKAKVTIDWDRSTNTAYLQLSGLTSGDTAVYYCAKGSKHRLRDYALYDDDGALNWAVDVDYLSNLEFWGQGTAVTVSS VL: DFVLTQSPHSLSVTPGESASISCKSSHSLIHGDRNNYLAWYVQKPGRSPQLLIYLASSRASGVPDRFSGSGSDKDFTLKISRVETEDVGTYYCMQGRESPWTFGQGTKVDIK ... 0.081

Read the next record carefully.
Item: ePGDM13 (antibody, V domains shown) VH: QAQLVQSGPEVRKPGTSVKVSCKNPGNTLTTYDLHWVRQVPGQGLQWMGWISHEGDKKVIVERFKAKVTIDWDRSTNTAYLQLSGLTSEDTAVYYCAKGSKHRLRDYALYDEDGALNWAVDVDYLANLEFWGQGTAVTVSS VL: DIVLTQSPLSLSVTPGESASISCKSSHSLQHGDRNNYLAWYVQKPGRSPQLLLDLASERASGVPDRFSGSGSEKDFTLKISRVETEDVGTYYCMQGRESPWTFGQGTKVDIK | IC80 (µg/ml) with constrains: 0.101
